Consider the following compounds and their measured ASMS ratio (%) n = 1 readings.
Molecular target: Bcl-2 protein (Recombinant Human Bcl-2 Protein) (Homo sapiens, UniProt P10415)
Construct: purchased Novus NBP2-34889
Sequence (P10415 whole entry): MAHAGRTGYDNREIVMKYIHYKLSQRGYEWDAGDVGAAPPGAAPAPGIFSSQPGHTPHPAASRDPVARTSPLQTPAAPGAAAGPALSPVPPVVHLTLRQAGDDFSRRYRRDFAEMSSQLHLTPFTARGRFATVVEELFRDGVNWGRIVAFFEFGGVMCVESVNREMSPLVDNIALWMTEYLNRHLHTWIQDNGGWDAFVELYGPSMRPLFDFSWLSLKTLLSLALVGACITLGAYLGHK
Assay: Binding evaluation of mixture library compounds to Bcl-2 using AS-MS (affinity selection mass spectrometry)
Settings: AS-MS on the mixture of 1200 library compounds; ASMS Ratio(%)=(A−C)/B×100; replicate n = 1
Method: […] Then, analysis of the 1200 compounds was carried out for samples A, B, and C with TraceFinder 5.1 (Thermo Fisher Scientific) and CHANCE Software (in-house), and the ASMS Ratio (%) was calculated according to the following calculation formula. […]
Your answer is read as %, so omit the unit and give the number.

Q. Reported ASMS ratio (%) n = 1, compound "CCOc1cccc(C#Cc2ccccc2CN2CCN(c3ccc(C(=O)Nc4ccc(OC)cc4)nn3)CC2)c1" : ____
A. 2.7

Q. Now try "CCOc1cccc(-c2ccc(C(=O)N3CCN(c4ccc(C(=O)Nc5ccc(OC)cc5)cc4)CC3)cc2C)c1" .
A. −0.4

Q. Okay, and "CCOc1cncc(-c2csc(C(=O)N3CCN(c4ccc(C(=O)N(C)CC56CC7CC(CC(C7)C5)C6)cc4)CC3)c2)c1" ?
A. 1.6

Q. Repeat with "CCOc1cncc(-c2cc(OC)c(CN3CCN(c4ccc(C(=O)Nc5ccc(OC)cc5)cc4)CC3)c(OC)c2)c1"
A. 0.6

* * *

Target: Bcl-2 protein (Recombinant Human Bcl-2 Protein) (Homo sapiens)
Construct: purchased Novus NBP2-34889
Experiment: Binding evaluation of mixture library compounds to Bcl-2 using AS-MS (affinity selection mass spectrometry)
Details: AS-MS, mixture library, Bcl-2; replicate n = 1; ASMS Ratio(%)=(A−C)/B×100
measured-metric: ASMS ratio (%) n = 1
Report only the number, with the unit % understood.

As a guide, the following entries are already answered.
> print(dat)
                                   compound       measured.metric  reported
1  CCOc1cccc(-c2ccc(CN3CCN(c4ccc(C(=O)NS(=O)(=O)CC56CC7CC(CC(C7)C5)C6)nn4)CC3)c(CC)c2)c1 [B2A075-01]  ASMS ratio (%) n = 1       4.6
2  CCOc1cncc(C#Cc2ccccc2C(=O)N2CCN(c3ccc(C(=O)NS(=O)(=O)c4ccc(NCCSc5ccccc5)c([N+](=O)[O-])c4)cc3)CC2)c1 [B2Q030-01]  ASMS ratio (%) n = 1       6.6
3  CCOc1cncc(-c2cc(CN3CCN(c4ccc(C(=O)NS(=O)(=O)c5ccc(NCCSc6ccccc6)c([N+](=O)[O-])c5)nn4)CC3)cc(OC(C)C)c2)c1 [B2Q084-01]  ASMS ratio (%) n = 1      12.6
4  CCOc1cccc(-c2cc(CN3CCN(c4ccc(C(=O)N(CC)CC)nn4)CC3)cc(OC(C)C)c2)c1 [B4J083-01]  ASMS ratio (%) n = 1       0.0
5  CCOc1cccc(-c2ccc(CN3CCN(c4ccc(C(=O)NS(=O)(=O)c5ccc(NCCSc6ccccc6)c([N+](=O)[O-])c5)cc4)CC3)cc2F)c1 [B2Q051-01]  ASMS ratio (%) n = 1      22.6

Could you now look at the following compound, please?
Q. Tell me the measured ASMS ratio (%) n = 1 of CCOc1cncc(-c2cc(C(=O)N3CCN(c4ccc(C(=O)NS(=O)(=O)CC56CC7CC(CC(C7)C5)C6)nn4)CC3)cc(C(C)(C)C)c2)c1 [B2A016-01] , please.
A. 0.0
